- protocol-details: qHTS assay to identify small molecule agonists of the farnesoid-X-receptor (FXR) signaling pathway - cell viability counter screen (AID 743218); further: nearly all actives have a fitted effect of over 45% in size
- applied-conditions: FXR-bla HEK293T viability, CellTiter-Glo luminescence, 16 h; series mostly up to 62.6 µM
Records with an inconclusive call do not appear. The source made the active and inactive calls. The call rests on the fitted dose curve; in most records, active means well fitted cell-killing curve with a large enough effect in the repeat runs; inconclusive means weak or mixed curves, or effect the other way; inactive means no such curve, though single readings can be large or run the other way.
Lab note: assign the record to one of y = active, n = inactive

Some solved cases for reference:
{"molecule": "Clc1ccc(C2(Cn3cncn3)OCCO2)c(Cl)c1", "group-label": "n"}
{"molecule": "S=C=Nc1ccccc1", "group-label": "n"}
{"molecule": "CC1(C)[C@H](/C=C2\\CCSC2=O)[C@@H]1C(=O)OCc1coc(Cc2ccccc2)c1", "group-label": "n"}
{"molecule": "COC(=O)c1cc(Oc2ccc(Cl)cc2Cl)ccc1[N+](=O)[O-]", "group-label": "n"}
{"molecule": "COP(=S)(OC)Oc1ccc([N+](=O)[O-])c(C)c1", "group-label": "n"}
{"molecule": "C#CCC1=C(C)C(OC(=O)C2C(C=C(C)C)C2(C)C)CC1=O (stereo unspecified)", "group-label": "n"}

Which outcome was entered for the molecule `Cc1cccc(Cc2cnc[nH]2)c1C` in this test?
n

Please state the recorded outcome for this molecule: `C[C@H]1[C@H](c2ccc(Cl)cc2)SC(=O)N1C(=O)NC1CCCCC1`
n

What call does the record list for `O=[N+]([O-])[O-].[Tl+]` ?
n

Hi, do you know how `Cc1ccccc1OP(=O)(Oc1ccccc1C)Oc1ccccc1C` came out in this test?
n

# lookup: test call for `CC1CCCC1`
n

Write down the call the test reported for this molecule. Item: `O=[N+]([O-])c1ccc(Cl)c(Cl)c1Cl`
n

What was the test verdict on `COc1ccc(Cc2nccc3cc(OC)c(OC)cc23)cc1OC` ?
n

Record lookup: outcome of this test for CCC(C)Br (stereo unspecified) ?
n

----------
- protocol-details: A CellTox Green Cytotoxicity Assay to monitor cytotoxicity in HepG2 cells - 40 hour (AID 1224879); further: nearly all actives have a fitted effect of over 40% in size
- applied-conditions: CellTox Green fluorescence; series mostly up to 76.8 µM
Records with an inconclusive call do not appear. Active and inactive are the calls of the source. Calls come from the whole dose curve; as a rule, active = well fitted activation curve with a large enough effect in the repeat runs; inconclusive = weak or mixed curves; inactive = flat fitted curve, though single readings scatter.
Please answer using one outcome listed in active, inactive

Which outcome was entered for the compound `CC(=O)O.CC(=O)O.CC(=O)O.CC(=O)O.CC(=O)O.CC(=O)O.CC(=O)O.O.O.[Cr].[Cr].[Cr]` in this test?
inactive

For `CC(=O)[O-].CC(=O)[O-].O.O.[Zn+2]` , what call appears in the results of this test?
inactive

----------
- protocol-details: A CellTox Green Cytotoxicity Assay to monitor cytotoxicity in HEK293 cells - 40 hour (AID 1224871); further: nearly all actives have a fitted effect of over 45% in size; further: potency means the concentration at half of the fitted maximal effect
- applied-conditions: CellTox Green fluorescence; series mostly up to 76.8 µM
Inconclusive results are not listed. The source made the active and inactive calls. Calls follow the shape of the dose curve; as a rule, active = well fitted activation curve with a large enough effect in the repeat runs; inconclusive = weak or mixed curves; inactive = flat fitted curve, though single readings scatter.
recorded-metric: Potency

Worked examples follow.
{"compound": "CCC(C)c1cccc(C(C)CC)c1O (stereo unspecified)", "observed": "27.5 µM (active)"}
{"compound": "CCN(CC)C(=O)N[C@@H]1C=C2c3cccc4[nH]cc(c34)C[C@@H]2N(C)C1", "observed": "inactive"}
{"compound": "O=C(N[C@H]1N=C(c2ccccc2F)c2cccc3c2N(CC3)C1=O)c1cc2ccccc2[nH]1", "observed": "inactive"}
{"compound": "C=CCBr", "observed": "inactive"}
{"compound": "CC1(C)C(C=C(Cl)Cl)C1C(=O)OC(C#N)c1ccc(F)c(Oc2ccccc2)c1 (stereo unspecified)", "observed": "inactive"}

Proceed to the following item.
compound O=S1(=O)OCC2C(CO1)C1(Cl)C(Cl)=C(Cl)C2(Cl)C1(Cl)Cl (stereo unspecified) , Potency observed: 49 µM (active)
